Entries and their measured absorbance 450 nm minus 540 nm follow.
- measured on: T1, peptide NGGLCEEISQEVRG (SEQ ID NO:81), N-terminally biotinylated (human)
- T1 construct: Human lactadherin 14-mer with part of the RGD domain at the C-terminus
- T1 peptide: Biotin-NGGLCEEISQEVRG
- assay text: ELISA, biotin-peptide on neutravidin plate, antibody 1 ug/ml
Ends that are not written are not given here. * marks the point of attachment. Biotin = O=C1N[C@H]2[C@H](CS[C@H]2CCCCC(=O)*)N1
Write the answer as a number in absorbance, unit excluded.

binder	value measured
anti-lactadherin antibody 311A7 (antibody, IgG1, V domains shown, also called murine 311A7; hybridoma 311A7) VH: EFQLQQSGPELVKPGASVRISCKASGYSFTDYNMNWVKQSDGKTLEWIGVINPDYGTTNNNQRFRGKATLTLDLSSSTAYMQLNSLTSEDSAVYYCARGGDYGAGYALDYWGQGTSVTVSS VL: QIVLTQSPAIMSASPGEKVTITCSASSSVSYMYWFQQKPGTSPKLWIYSTSNLASGVPARFSGSGSGTSYSLTISRMEAEDAATYYCQQRSSYPRTFGGGTKLEIKR	0.01

Here is the next item to consider.
// absorbance 450 nm minus 540 nm lookup, key: anti-lactadherin antibody 215A9 (antibody, IgG1, V domains shown, also called 2154A9; hybridoma 215A9) VH: QVSLKESGPGILQSSQTLSLTCSFSGFSLSTSGMGVSWIRQPSGKGLEWLAHIYWNDDKRYNPSLKSRLTISKDTSRDQVFLKITSVDTADTATYFCARRPRFYRDYDEGIDFWGQGTTLTVSS VL: QAVVTQESALTTSPGETVTLTCRSSTGAVTTNNYANWVQEKPDHLFTGLIGGTNNRTPGVPARFSGSLIGDKAALTITGAQTEDEAIYFCALWYSNLWVFGGGTKLTVLG 0.03

Values from patent WO2013139956A1
